Below, each of the molecules is paired with its reported Activity value.
Tested on: Woodchuck hepatitis virus
Assay: Antiviral activity against Woodchuck hepatitis virus infected in woodchuck assessed as reduction of viral RNA level per ug of total cell DNA at 15 mg/kg, po qd for 48 weeks measured on 60th week (reference value: 27 pg)
Assay type: functional
Response body: numeric value in pg, unit text excluded.

Known Activity results, listed for orientation:
Nc1nc(=O)n([C@@H]2CS[C@H](CO)O2)cc1F
48
Nc1ccn([C@@H]2CS[C@H](CO)O2)c(=O)n1
46
CC(C)(C)C(=O)OCOP(=O)(COCCn1cnc2c(N)ncnc21)OCOC(=O)C(C)(C)C
46

(Q) Could you tell me which Activity is on file for CC(C)OC(=O)OCOP(=O)(CO[C@H](C)Cn1cnc2c(N)ncnc21)OCOC(=O)OC(C)C.O=C(O)/C=C/C(=O)O [TENOFOVIR DISOPROXIL FUMARATE] ?
(A) 34
